These measurements were taken from PubChem BioAssay.

TEST_DETAILS: basal S. cerevisiae growth modulation, no modifier, primary screen, OD600, strain BY4716, 24 h, basal condition (AID 1173)
CONDITION_LABEL: OD600, 24 h, higher = more signal, called active from +8 up or from −8 down
Values of z-score greater than or equal to -1 map to condition met; values below map to condition not met.

Q: Answer whether z-score of "COc1ccc([Si](C)(C)[C@H]2[C@H](CCO)O[C@@]3(C(=O)N(Cc4ccccc4)c4ccc(N5CCOC5=O)cc43)[C@@H]2C)cc1" is greater than or equal to -1.
Ans: condition met

Q: Answer whether z-score of "C[C@]1(C(=O)O)c2ccccc2C(=O)N(Cc2ccc(OC(F)(F)F)cc2)[C@H]1c1ccc(CO)cc1" is greater than or equal to -1.
Ans: condition met
